target: HLA-A*0301 (Human); settings: remark: other sources report otherwise
Kindly state binding affinity ratio (IC50 of standard peptide/IC50 of test peptide) for each of the entries shown.
// no unit, no text: just the number

-- ask Looking for the measured binding affinity ratio (IC50 of standard peptide/IC50 of test peptide) of SSCMGGMNR [p53 peptide … (position 240, 9 amino acids)] , can you help?
-- reply 0.02

-- ask Looking for the measured binding affinity ratio (IC50 of standard peptide/IC50 of test peptide) of SSCMGGMNRR [p53 peptide … (position 240, 10 amino acids)] , can you help?
-- reply 0.0001

-- ask Looking for the measured binding affinity ratio (IC50 of standard peptide/IC50 of test peptide) of TCTYSPALNK [p53 peptide … (position 123, 10 amino acids)] , can you help?
-- reply 0.0056

-- ask Looking for the measured binding affinity ratio (IC50 of standard peptide/IC50 of test peptide) of VTCTYSPALNK [p53 peptide … (position 122, 11 amino acids)] , can you help?
-- reply 0.07

-- ask Looking for the measured binding affinity ratio (IC50 of standard peptide/IC50 of test peptide) of TSRHKKLMFK [p53 peptide … (position 377, 10 amino acids)] , can you help?
-- reply 0.05
